- Study target: KDR endogenously expressed on human umbilical vein endothelial cells (HUVEC) (human, UniProt P35968 20-1356)
- Sequence (P35968 20-1356): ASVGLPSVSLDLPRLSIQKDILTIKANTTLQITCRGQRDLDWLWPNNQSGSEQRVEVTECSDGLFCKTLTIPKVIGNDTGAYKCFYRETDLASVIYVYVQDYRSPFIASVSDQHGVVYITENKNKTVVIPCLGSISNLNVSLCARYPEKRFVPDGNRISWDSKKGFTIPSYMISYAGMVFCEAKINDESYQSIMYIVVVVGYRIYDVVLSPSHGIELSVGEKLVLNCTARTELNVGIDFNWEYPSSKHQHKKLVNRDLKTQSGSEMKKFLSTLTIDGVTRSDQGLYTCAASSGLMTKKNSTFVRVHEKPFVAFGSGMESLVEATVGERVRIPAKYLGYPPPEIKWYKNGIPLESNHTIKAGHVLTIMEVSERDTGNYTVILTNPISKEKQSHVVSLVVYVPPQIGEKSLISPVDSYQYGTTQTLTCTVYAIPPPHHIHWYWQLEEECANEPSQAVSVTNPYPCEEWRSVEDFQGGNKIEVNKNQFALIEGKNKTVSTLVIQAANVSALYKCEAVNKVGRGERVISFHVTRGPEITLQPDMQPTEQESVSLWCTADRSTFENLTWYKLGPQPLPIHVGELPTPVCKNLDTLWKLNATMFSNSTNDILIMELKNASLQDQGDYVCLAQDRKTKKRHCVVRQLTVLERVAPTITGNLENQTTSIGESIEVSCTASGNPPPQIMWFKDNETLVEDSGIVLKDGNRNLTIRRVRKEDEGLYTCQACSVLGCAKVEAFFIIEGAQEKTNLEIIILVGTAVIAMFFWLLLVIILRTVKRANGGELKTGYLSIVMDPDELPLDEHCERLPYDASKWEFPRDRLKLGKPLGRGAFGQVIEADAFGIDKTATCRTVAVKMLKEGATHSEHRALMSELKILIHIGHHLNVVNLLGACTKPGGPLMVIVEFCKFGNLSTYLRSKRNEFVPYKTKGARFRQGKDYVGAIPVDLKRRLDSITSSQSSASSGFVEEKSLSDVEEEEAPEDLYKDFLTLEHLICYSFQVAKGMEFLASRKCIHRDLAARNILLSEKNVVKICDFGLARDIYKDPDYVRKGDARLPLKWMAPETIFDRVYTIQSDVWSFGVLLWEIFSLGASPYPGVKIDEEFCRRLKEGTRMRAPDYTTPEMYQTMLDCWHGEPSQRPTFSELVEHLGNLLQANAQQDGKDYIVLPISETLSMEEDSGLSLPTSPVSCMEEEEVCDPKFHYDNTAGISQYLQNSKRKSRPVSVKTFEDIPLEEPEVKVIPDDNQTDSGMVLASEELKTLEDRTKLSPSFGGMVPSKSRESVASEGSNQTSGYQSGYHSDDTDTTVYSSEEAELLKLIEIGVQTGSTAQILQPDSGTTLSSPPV
- Run description: cell-based or functional assay
Short version: VEGF-E-mediated Survival % Inhibition (n = 2) at least 40% is label 1, less is label 0.

// known answers, use as guide
32F4 (antibody, V domains shown, Fully human mAb from XenoMouse hybridoma, tested as hybridoma supernatant) VH: QLQLQESGPGLVKPSGTLSLSCTVSGGSISSRSDYWGWIRQPPGKGLEWIGTIYYSGNTFYNPSLKSRVTISVDTSKKQFSLKLSSVTAADTAVYYCARQQLVLYYFDYWGQGTLVTVSS VL: EIVLTQSPGTLSLSPGERATLSCRTSQSVSSSYLAWYQQKPGQAPRLLIYGASSRATGVPDRFSGSGSGTDFSLTISRLEPEDFAVYYCQQYGSSPPLTFGGGTKVEIK
label 1
33E1 (antibody, V domains shown, Fully human mAb from XenoMouse hybridoma, tested as hybridoma supernatant) VH: QVQLQESGPGLVKPSQTLSLTCTVSGGSISSGDHYWSWIRQHPGKGLEWIGHIYYSGSTDYNPSLKSRVTISVDTSKNHFSLKLNSVTAADTAVYYCARTNSSSWSDWYFDLWGRGTLVTVSS VL: DIVMTQSPDSLAVSLGERATINCKSSQSILYSSNNKNYLAWYQRKPGQPPILLIHWASTRESGVPDRFSGSGSRTDFTLTISSLQAEDVAVYYCQQYFITPWTFGQGTKVEIK
label 1
21H9 (antibody, V domains shown, Fully human mAb from XenoMouse hybridoma, tested as hybridoma supernatant) VH: QVPLVESGGGVVQPGRSLRLSCAASGFTFSSYGMHWVRQAPGKGLEWVAVIWYDGSNKYYADSVQGRFTISRDNSKNTLYLQMNSLRAEDTAVYYCARGVTMVRGLIIARYYYGLDVWGQGTTVTVSS VL: DIVMTQTPLSSPVTFGQPASISCRSSQSLVHSDGNTYLSWLQQRPGQPPRLLIYKISNRFFGVPDRFSGSGAGTDFTLKISRVEAEDVGLYYCMQSTQFPLTFGGGTKVEIK
label 0
32G7 (antibody, V domains shown, Fully human mAb from XenoMouse hybridoma, tested as hybridoma supernatant) VH: EVQLVESGGGLVKPGGSLRLSCAASGFTISSYSMNWVRQAPGKGLEWVSFISSRSNYIYYADSVKGRFTISRDNAKNSLYLQMNSLRAEDTAVYYCSKDDWFEELWGQGTLVTVSS VL: DIQMTQSPSSLSASVGDRVTITCRASQDIRNDLGWYQQKPGKAPKRLIYAASSLQSGVPSRFSGSGSGTEFTLTISSLQPEDFATYYCLQHNSFPWTFGQGTKVEIK
label 1
29A3 (antibody, V domains shown, Fully human mAb from XenoMouse hybridoma, tested as hybridoma supernatant) VH: QVQLQESGPGLVKPSETLSLTCTVSGGSISSYFWSWIRQPAGKGLEWIGRIYFSGRTNYNPSLKSRVTMSVETSKNQFSLKLNSVTAADTAVYYCARDGGWNYDVAFDYWGQGTLVTVSS VL: QAVLTQPSSLSASPGASASLTCTLRSGINVGTYRIYWYQQKPGSPPQYLLRYKSDSDQLQGSGVPSRFSGSKDASANAGILLISGLQSEDEADYYCMVWHSNTWVFGGGTKLTVL
label 0

Entry 27A3 (antibody, V domains shown, Fully human mAb from XenoMouse hybridoma, tested as hybridoma supernatant) VH: QLQLQESGPGLVKPSETLSLTCTVSGGSISSRSDYWGWIRQPPGKGLEWIGTIYYSGDTYYNPSLKSRVTISVDTSKNQFSLKLSSVTAADTAVYYCARQQLVLYYFDYWGQGTLVTVSS VL: EIVLTQSPGTLSLSPGERATLSCRASQSVSSSYLAWYQQKPGQAPRLLIYATSNRATGIPDRFSGSGSGTDFTLTISRLEPEDFAVYYCQQHGSSPPLTFGGGTKVEIK : is its VEGF-E-mediated Survival % Inhibition (n = 2) no less than 40%?
label 1

Answer whether VEGF-E-mediated Survival % Inhibition (n = 2) of 24B3 (antibody, V domains shown, Fully human mAb from XenoMouse hybridoma, tested as hybridoma supernatant) VH: EVQLVESGGGLVKPGGSLRLSCAASGFTFSTYSMNWVRQAPGKGLEWVSFISGRSSYIYYADSVKGRFTISRDNAKNSLYLQMNSLRAEDTAVYYCSKDDWFEELWGQGTLVTVSS VL: DIQMTQSPSSLSASVGDRVTITCRASQGIRSDLGWYQQKPGKAPKRLIYATSSLQSGVPSRFSGSGSGTEFTLTISSLQPEDFATYYCLQHNRYPWTFGQGTKVEIK is greater than or equal to 40%.
label 1

Please indicate if the recorded VEGF-E-mediated Survival % Inhibition (n = 2) for 29F7 (antibody, V domains shown, Fully human mAb from XenoMouse hybridoma, tested as hybridoma supernatant) VH: QVQLVQSGAEVKKPGASVKVSCKASGYTFTSYDINWVRQATGQGLEWMGWMNPNSGKTGYAQKFQGRVTMTRSTSISTAYMELSSLRSEDTAVYYCARGGYSNLGWFDPWGQGTLVTVSS VL: DIQMTQSPSSVFASVGDRVTITCRASQGISTWLAWYQQKPGKAPKFLIYAASSLQSGVPSRFSGSGSGTDFTLTISSLQPDDFATYYCQQANNFPFTFGPGTKVDIK meets or exceeds 40%.
label 0

Is VEGF-E-mediated Survival % Inhibition (n = 2) at least 40%? Consider 33C3 (antibody, V domains shown, Fully human mAb from XenoMouse hybridoma, tested as hybridoma supernatant) VH: QVQLVESGGGLVKPGESLRLSCAASGFTFSDYYMSWIRQAPGKGLEWVSYISHGGSTIYYADSVKGRFTISRDNAKNSLYLQMNSLRVEDTAVYFCARDDFWSGYYFNWFDPWGQGALVTVSS VL: DIQMTQYPLSLSASVGDRVTITCRASQSISSFLNWYHQKPGKAPKLLIYGTSSLQSGVPSRFSGSGSGTDFTLTISSLQPEDFATYYCQQTYSIPLTFGGGTNVEIK
label 1
